assay: Inhibition of DNA polymerase (unknown origin); parameters: species or system Homo sapiens
quantity: pIC50
Note: pIC50 values are expressed as the negative base-10 logarithm of concentration in M.

Request: Give its pIC50 value. Item: CC(C)C1CCC(O)(COC(=O)C2=CC3C(C(C)C)CCC4(CO4)C3C(=O)OC2)C2C(=O)OCC(C(=O)O)=CC12 (stereo unspecified)
Response: 4.51

Just for reference, ChEMBL document CHEMBL4371093 is where these values come from.
